Listed here are compounds together with their documented minimum inhibitory concentration (MIC) of the antibiotic.
tested on: Salmonella typhimurium LT2 strain SL 696; assay: MIC of antibiotics in the presence of polymyxin nonapeptide, microtiter plate, S. typhimurium; type: cell-based; settings: PMBN 0.3 μg/ml; S. typhimurium SL 696; 18 h
observationType: minimum inhibitory concentration (MIC) of the antibiotic

[[record]]
compound = "Cc1onc(-c2ccccc2Cl)c1C(=O)N[C@@H]1C(=O)N2[C@@H]1SC(C)(C)[C@@H]2C(=O)O"
targetentity = "Salmonella typhimurium LT2 strain SL 696"
qualifiersymbol = "="
resultnumber = 300

[[record]]
compound = "CC(=O)O[C@H]1C[C@@]2(C)[C@@H](C[C@@H](O)[C@H]3[C@@]4(C)CC[C@@H](O)[C@@H](C)[C@@H]4CC[C@@]32C)/C1=C(\\CCC=C(C)C)C(=O)O"
targetentity = "Salmonella typhimurium LT2 strain SL 696"
qualifiersymbol = "="
resultnumber = 100

[[record]]
compound = "CC1(C)S[C@@H]2[C@H](NC(=O)Cc3ccccc3)C(=O)N2[C@H]1C(=O)O"
targetentity = "Salmonella typhimurium LT2 strain SL 696"
qualifiersymbol = "="
resultnumber = 10

[[record]]
compound = "CO[C@@H]1[C@@H](OC(N)=O)[C@@H](O)[C@H](Oc2ccc3c(O)c(NC(=O)c4ccc(O)c(CC=C(C)C)c4)c(=O)oc3c2C)OC1(C)C"
targetentity = "Salmonella typhimurium LT2 strain SL 696"
qualifiersymbol = "="
resultnumber = 10

[[record]]
compound = "CCOc1ccc2ccccc2c1C(=O)N[C@@H]1C(=O)N2[C@@H]1SC(C)(C)[C@@H]2C(=O)O"
targetentity = "Salmonella typhimurium LT2 strain SL 696"
qualifiersymbol = "≥"
resultnumber = 1000

[[record]]
compound = "CCOC(=O)CCC(=O)O[C@H]1[C@H](O[C@@H]2[C@@H](C)[C@H](O[C@H]3C[C@@](C)(OC)[C@@H](O)[C@H](C)O3)[C@@H](C)C(=O)O[C@H](CC)[C@@](C)(O)[C@H](O)[C@@H](C)C(=O)[C@H](C)C[C@@]2(C)O)O[C@H](C)C[C@@H]1N(C)C [Erythromycin, erythromycin ethylsuccinate]"
targetentity = "Salmonella typhimurium LT2 strain SL 696"
qualifiersymbol = "="
resultnumber = 30

